System: A549
test protocol: Cytotoxicity against human A549 cells incubated for 48 hrs by MTT assay
Type: functional, cell-based
assay setup: A549, 48 h
recorded metric: IC50

molecule	system tested	IC50
COc1cc(O)c2c(c1)C(=O)C1=C(C2=O)C(O)OC(C)=C1 (stereo unspecified)	A549	> 40 µM
COc1cc(C)cc(O)c1	A549	> 40 µM
COc1cc(O)c2c(c1)C(=O)C1=C(COC(C)=C1)C2=O	A549	> 40 µM
COc1cc(O)c2c(c1)[C@@H](O)[C@H]1C[C@H](C)OC=C1C2=O	A549	> 40 µM

COc1cc(O)c2c(c1)C(=O)c1cc(C)ncc1C2=O yielded IC50 of > 40 µM

Sample COc1cc(O)c2c(c1)[C@@H]1O[C@]3(C)C[C@@H]1[C@@H](CO3)C2=O ; IC50 observed: > 40 µM

Form: molecule = COc1cc(O)c2c(c1)[C@@H](O)[C@@H]1C[C@@H](C)OC[C@H]1C2=O ; IC50 = > 40 µM

For this molecule ( COc1cc(O)c2c(c1)[C@H](O)[C@@H]1C[C@H](C)OC[C@H]1C2=O ), measured IC50 is > 40 µM

Noted for COc1cc(C)c(Cc2c(C)cc(O)cc2OC)c(O)c1 : its IC50 reads > 40 µM

Given item COc1cc(O)c2c(c1)C(=O)C(CC(C)=O)=C(C)C2=O , the value recorded as its IC50 is > 40 µM
